System: A431
Assay: Cell proliferation IC50 assay (Cell Titer GLO), A431 cells
Type: cell-based
Details: Homo sapiens, A-431; Table 5; A431, 72 h; read-out: A431 IC50
Metric: pIC50
By convention, pIC50 is the negative base-10 log of a molar concentration.

Known results for molecules:
COc1cc(N2CCC(N3CCN(CC#Cc4cccc5c4CN(C4CCC(=O)NC4=O)C5=O)CC3)CC2)ccc1Nc1ncc(Cl)c(Nc2ccccc2P(C)(C)=O)n1 (stereo not drawn) [Example C-3, reference compound]	5.92
CP(C)(=O)c1ccccc1Nc1nc(Nc2ccc(N3CCC4(CCN(CCCC#Cc5cccc6c5CN(C5CCC(=O)NC5=O)C6=O)CC4)CC3)c(Cl)c2)ncc1Cl (stereo not drawn)	5.66
COc1cc(N2CCC3(CCN(CCCC#Cc4cccc5c4CN(C4CCC(=O)NC4=O)C5=O)CC3)CC2)ccc1Nc1ncc(Cl)c(Nc2ccccc2P(C)(C)=O)n1 (stereo not drawn) [Example C-1, reference compound]	5.55

[Q] Using A431 as the test system, report measured pIC50 of CCc1cc(Nc2ncc(Cl)c(Nc3ccccc3P(C)(C)=O)n2)c(OC)cc1N1CCC(N2CCN(CCCCCc3ccc4c(c3F)CN(C3CCC(=O)NC3=O)C4=O)CC2)CC1 (stereo not drawn) .
[A] 5.90

* * *

Overview of recorded IC50 for various compounds
Test system: BaF3 (EGFR L858R/T790M/C797S)
Assay: Cell proliferation IC50 assay (Cell Titer GLO), BaF3 LTC cells
Type: cell-based
Conditions: Mus musculus, Ba/F3 EGFR, Table 5, 72 h
Numbers only here, please. The scale is nM.

// below: answered compounds
CCc1cc(Nc2ncc(Cl)c(Nc3ccccc3P(C)(C)=O)n2)ccc1N1CCC(N2CCN(CCC#Cc3cccc4c3CN(C3CCC(=O)NC3=O)C4=O)CC2)CC1 (centres unmarked)	11.2
COc1cc(N2CCC(N3CCN(CCC#Cc4cccc5c4CN(C4CCC(=O)NC4=O)C5=O)CC3)CC2)c(Cl)cc1Nc1ncc(Cl)c(Nc2ccccc2P(C)(C)=O)n1 (centres unmarked)	28.4
CCc1cc(Nc2ncc(Cl)c(Nc3ccccc3P(C)(C)=O)n2)c(OC)cc1N1CCC(N2CCN(CCCCCc3ccc4c(c3F)CN(C3CCC(=O)NC3=O)C4=O)CC2)CC1 (centres unmarked)	54.3

[Q] Item CCc1cc(Nc2ncc(Cl)c(Nc3ccccc3P(C)(C)=O)n2)c(OC)cc1N1CCC2(CCN(CCCC#Cc3cccc4c3CN(C3CCC(=O)NC3=O)C4=O)CC2)CC1 (centres unmarked) : provide IC50
[A] 120

* * *

Quick reference: pIC50 of the listed items.
Biological target: BaF3 (EGFR Del19/C797S) (Homo sapiens, UniProt P00533, C797S, cells depend on it, form not given)
Construct: BaF3 (EGFR Del19/C797S)|DC|RPMI1640 + 10% FBS
Sequence (P00533 with tags, fused parts or gaps DEL746-750/C797S, form open): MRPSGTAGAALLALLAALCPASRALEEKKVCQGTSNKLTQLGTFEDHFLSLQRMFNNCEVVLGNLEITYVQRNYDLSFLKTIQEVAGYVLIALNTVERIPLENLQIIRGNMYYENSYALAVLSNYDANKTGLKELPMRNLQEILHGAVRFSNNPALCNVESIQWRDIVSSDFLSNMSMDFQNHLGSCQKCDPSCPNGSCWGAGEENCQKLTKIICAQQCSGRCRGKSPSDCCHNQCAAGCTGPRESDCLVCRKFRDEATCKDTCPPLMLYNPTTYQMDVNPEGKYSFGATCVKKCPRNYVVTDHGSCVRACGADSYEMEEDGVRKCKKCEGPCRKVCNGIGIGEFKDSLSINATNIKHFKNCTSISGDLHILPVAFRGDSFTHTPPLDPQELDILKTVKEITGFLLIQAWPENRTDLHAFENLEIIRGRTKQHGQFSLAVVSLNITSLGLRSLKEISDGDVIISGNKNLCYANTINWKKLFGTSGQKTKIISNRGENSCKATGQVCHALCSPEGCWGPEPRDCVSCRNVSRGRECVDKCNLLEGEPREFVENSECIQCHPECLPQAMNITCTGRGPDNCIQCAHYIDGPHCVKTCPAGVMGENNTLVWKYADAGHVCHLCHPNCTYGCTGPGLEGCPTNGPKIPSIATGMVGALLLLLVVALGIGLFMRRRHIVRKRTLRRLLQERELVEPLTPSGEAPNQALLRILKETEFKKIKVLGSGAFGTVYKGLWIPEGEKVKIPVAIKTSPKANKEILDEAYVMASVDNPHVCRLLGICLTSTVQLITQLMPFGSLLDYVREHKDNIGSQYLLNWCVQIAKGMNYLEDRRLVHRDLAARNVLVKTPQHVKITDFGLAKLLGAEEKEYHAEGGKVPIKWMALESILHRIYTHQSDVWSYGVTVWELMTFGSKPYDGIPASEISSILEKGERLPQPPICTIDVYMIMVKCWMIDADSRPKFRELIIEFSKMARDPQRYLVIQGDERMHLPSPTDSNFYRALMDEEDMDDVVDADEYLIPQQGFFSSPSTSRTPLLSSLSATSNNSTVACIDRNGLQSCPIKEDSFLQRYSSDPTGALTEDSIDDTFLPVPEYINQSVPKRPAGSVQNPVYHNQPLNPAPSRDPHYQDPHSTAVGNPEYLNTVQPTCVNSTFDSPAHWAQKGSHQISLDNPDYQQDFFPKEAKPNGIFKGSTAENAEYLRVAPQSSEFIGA
Assay: Cell proliferation IC50 assay (Cell Titer GLO), BaF3 DC cells
Type: cell-based, mouse
Settings: Table 6, 72 h
Keep it numeric: pIC50 is minus log10 of the concentration in mol/L.

Look over these answered cases.
CCc1cc(Nc2ncc(Cl)c(Nc3ccccc3P(C)(C)=O)n2)c(OC)cc1N1CCC(N2CCN(CCNc3cccc4c3C(=O)N(C3CCC(=O)NC3=O)C4=O)CC2)CC1 (stereo not drawn)	7.77
CCc1cc(Nc2nc(Nc3ccccc3P(C)(C)=O)c3cc[nH]c3n2)c(OC)cc1N1CCC(N2CCN(CCCCOc3cccc4c3CN(C3CCC(=O)NC3=O)C4=O)CC2)CC1 (stereo not drawn)	7.93

Then this molecule:
[Q] Given CCc1cc(Nc2ncc(Cl)c(Nc3ccccc3P(C)(C)=O)n2)cc(OC)c1N1CCC(N2CCN(CCC#Cc3cccc4c3CN(C3CCC(=O)NC3=O)C4=O)CC2)CC1 (stereo not drawn) , respond with its pIC50.
[A] 7.82

* * *

Tested on: BaF3 (EGFR L858R/T790M/C797S)
Experiment: Cell proliferation IC50 assay (Cell Titer GLO), BaF3 LTC cells
Assay type: cell-based
Conditions: Mus musculus, Ba/F3 EGFR, Table 5, 72 h
Output Y for records whose IC50 is lower than 40 nM, N for records at or above 40 nM.

COc1cc(N2CCC(N3CCN(CCCCCc4ccc5c(c4)CN(C4CCC(=O)NC4=O)C5=O)CC3)CC2)ccc1Nc1ncc(Cl)c(Nc2ccccc2P(C)(C)=O)n1 (stereo not shown) [Example C-5, reference compound]	N

[Q] Determine whether this compound shows IC50 lower than 40 nM (ties excluded): COc1cc(N2CCC(N3CCN(CCCc4cccc5c4CN(C4CCC(=O)NC4=O)C5=O)CC3)CC2)ccc1Nc1ncc(Cl)c(Nc2ccccc2P(C)(C)=O)n1 (stereo not shown) [Example C-4, reference compound]
[A] N

[Q] Please check: IC50 for CCc1cc(Nc2ncc(Cl)c(Nc3ccccc3P(C)(C)=O)n2)c(OC)cc1N1CCC(N2CCN(CCCCOc3cccc4c3CN(C3CCC(=O)NC3=O)C4=O)CC2)CC1 (stereo not shown) , strictly under 40 nM or not?
[A] Y

[Q] For COc1cc(N2CCC(N3CCC4(CCC(Oc5cccc6c5CN(C5CCC(=O)NC5=O)C6=O)CC4)C3)CC2)c(C2CC2)cc1Nc1ncc(Cl)c(Nc2ccccc2P(C)(C)=O)n1 (stereo not shown) , is the recorded IC50 below the cut-off of 40 nM?
[A] Y

[Q] Problem: For the compound CCc1cc(Nc2ncc(Cl)c(Nc3ccccc3P(C)(C)=O)n2)c(OC)cc1N1CCC(N2CCN(CCC#Cc3cccc4c3CN(C3CCC(=O)NC3=O)C4=O)CC2)CC1 (single isomer, unassigned) , is IC50 under 40 nM?
[A] Y

[Q] # TODO verify IC50 < 40 nM strictly for this compound: COc1cc(N2CCC(N3CCC4(CCC(Oc5cccc6c5CN(C5CCC(=O)NC5=O)C6=O)CC4)C3)CC2)ccc1Nc1ncc(Cl)c(Nc2ccccc2P(C)(C)=O)n1 (stereo not shown) [Example C-6, reference compound]
[A] Y

[Q] Is 40 nM strictly greater than the compound's reported IC50? compound: CCc1cc(Nc2ncc(Cl)c(Nc3ccccc3P(C)(C)=O)n2)c(OC)cc1N1CCC(N2CCN(CCC#Cc3ccc4c(c3)CN(C3CCC(=O)NC3=O)C4=O)CC2)CC1 (stereo not shown)
[A] N
